Target: T1, 4H477-bA
T1 chain: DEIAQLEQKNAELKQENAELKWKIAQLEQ
Assay: two-hybrid library CCNG1;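 further: natural log of median RNA to DNA barcode read ratio; higher means stronger binding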
Reported interaction score by item:

Known interaction score results, listed for orientation:
{"binder": "DKIAQLKQKIAELKQKIAELEWENAQLEQ [4H2915-bA]", "result": -1.05}
{"binder": "DKIAQLEQENAELEQKIAELKWKNAQLEQ [4H2223-bA]", "result": -1.47}
{"binder": "DKIAQLEQEIAELKQENAELEWKIAQLKQ [4H2134-bA]", "result": 0.935}

What value of measured interaction score is listed for DEIAQLEQENAELEQKNAELEWKIAQLKQ [4H182-bA] ?
-0.804

What value of measured interaction score is listed for DKIAQLKQKIAELEQENAELEWKNAQLEQ [4H2839-bA] ?
-0.768

What value of measured interaction score is listed for DKIAQLKQEIAELEQENAELKWENAQLKQ [4H2588-bA] ?
-1.19

What value of measured interaction score is listed for DKIAQLEQKNAELEQKIAELKWEIAQLEQ [4H2473-bA] ?
-0.946

What value of measured interaction score is listed for DEIAQLEQKIAELEQKNAELKWKNAQLEQ [4H319-bA] ?
-0.399

What value of measured interaction score is listed for DKIAQLEQKNAELEQEIAELEWKIAQLKQ [4H2438-bA] ?
-0.278

What value of measured interaction score is listed for DKNAQLEQENAELKQEIAELKWKIAQLEQ [4H3277-bA] ?
-0.644

What value of measured interaction score is listed for DKIAQLKQENAELEQENAELKWKIAQLEQ [4H2717-bA] ?
0.776

What value of measured interaction score is listed for DEIAQLEQKIAELKQENAELKWENAQLKQ [4H348-bA] ?
-1.23

What value of measured interaction score is listed for DKIAQLKQENAELEQEIAELEWENAQLKQ [4H2692-bA] ?
-1.06

What value of measured interaction score is listed for DKIAQLEQKNAELKQEIAELEWKNAQLEQ [4H2503-bA] ?
-0.816
